Species: Rattus norvegicus
Experiment: Open TG-GATES - Regimen: Daily Repeat
Format: toxicity, organism-based, Sprague-Dawley
Set-up: regimen Daily Repeat, gender Male, age 6 weeks
Conditions: in vivo, po, 0 mg/kg, […], tissue Plasma, route gavage, dose level Control, time 14 day
TG reference
Express it in mg/dL; write the number only.

Worked examples, 2 compounds total:
• NC1=NC(=O)C(c2ccccc2)O1 (stereo not given) = 88.2
• O=C(OC[C@H]1O[C@@H](OC(=O)c2cc(O)c(O)c(OC(=O)c3cc(O)c(O)c(O)c3)c2)[C@H](OC(=O)c2cc(O)c(O)c(OC(=O)c3cc(O)c(O)c(O)c3)c2)[C@@H](OC(=O)c2cc(O)c(O)c(OC(=O)c3cc(O)c(O)c(O)c3)c2)[C@@H]1OC(=O)c1cc(O)c(O)c(OC(=O)c2cc(O)c(O)c(O)c2)c1)c1cc(O)c(O)c(OC(=O)c2cc(O)c(O)c(O)c2)c1 = 115.2

Enquiry: Looking for the measured TG of Nc1c2c(nc3ccccc13)CCCC2 , can you help?
Return: 123.4

Enquiry: And for CN(C)CCC(c1ccc(Cl)cc1)c1ccccn1 (stereo not given) ?
Return: 126

Enquiry: Follow-up entry: Cc1nnc2n1-c1ccc(Cl)cc1C(c1ccccc1Cl)=NC2
Return: 135.6

Reference for the values: ChEMBL document CHEMBL3885861
